Sourced from PubChem BioAssay (Tox21)

- assayed system: Nuclear receptor subfamily 1 group I member 2 (Homo sapiens)
- assay method text: CYP3A4 induction through human pregnane X receptor (PXR) by small molecules, qHTS assay (AID 1346984); also: nearly all actives have a fitted effect of over 40% in size
- test conditions: DPX-2 HepG2 PXR, CYP3A4-luciferin luminescence, 24 h; series mostly up to 46.1 µM
Results filed as inconclusive are left out. Calls of active or inactive are those of the source. Calls follow the shape of the dose curve; as a rule, active = well fitted activation curve with a large enough effect in the repeat runs; inconclusive = weak or mixed curves; inactive = no such curve, though single readings can be large or run the other way.
Mark one answer only. Choices: active, inactive

Below, 2 compounds whose answers are already recorded.
1. CCCCCCC(=O)CCCCCC/C=C/C[C@@H](O)[C@H](O)[C@@](N)(CO)C(=O)O: inactive
2. CN1C(=O)COc2c(C(=O)NC3CN4CCC3CC4)cc(Cl)cc21 (configuration not stated): inactive

Q: Answer briefly: the call reported for CNC(=O)NC(O)C(Cl)(Cl)Cl (configuration not stated) in this assay.
A: inactive

Q: Answer briefly: the call reported for `CCC1(c2ccccc2)C(=O)N(COC)C(=O)N(COC)C1=O` in this assay.
A: active

Q: Answer briefly: the call reported for `C=C1CC[C@@]2(O)[C@H]3Cc4ccc(O)c5c4[C@@]2(CCN3CC2CC2)[C@H]1O5` in this assay.
A: inactive

Q: Answer briefly: the call reported for Cc1ccc2c(c1)C1CN(C)CCC1N2 (configuration not stated) in this assay.
A: inactive

Q: Answer briefly: the call reported for CCC1(c2cccc(O)c2)CCCCN(C)C1 (configuration not stated) in this assay.
A: inactive
